# METHOD_NOTES: Half life in rat liver microsomes
# Type: ADME, Microsome
METRIC_NAME: half-life (min)

(I) CC1(C)NCCc2c1oc1cc(S(=O)(=O)c3cccc(F)c3)ccc21
(II) O=S(=O)(c1cccc(F)c1)c1ccc2c3c(oc2c1)C1(CCOCC1)NCC3
# returns the entry with the larger half-life; inputs I and II The response must carry the label of the picked entry.
II

====

# SYSTEM_NAME: 5-hydroxytryptamine receptor 6 (Homo sapiens, UniProt P50406)
# Sequence (P50406 whole entry): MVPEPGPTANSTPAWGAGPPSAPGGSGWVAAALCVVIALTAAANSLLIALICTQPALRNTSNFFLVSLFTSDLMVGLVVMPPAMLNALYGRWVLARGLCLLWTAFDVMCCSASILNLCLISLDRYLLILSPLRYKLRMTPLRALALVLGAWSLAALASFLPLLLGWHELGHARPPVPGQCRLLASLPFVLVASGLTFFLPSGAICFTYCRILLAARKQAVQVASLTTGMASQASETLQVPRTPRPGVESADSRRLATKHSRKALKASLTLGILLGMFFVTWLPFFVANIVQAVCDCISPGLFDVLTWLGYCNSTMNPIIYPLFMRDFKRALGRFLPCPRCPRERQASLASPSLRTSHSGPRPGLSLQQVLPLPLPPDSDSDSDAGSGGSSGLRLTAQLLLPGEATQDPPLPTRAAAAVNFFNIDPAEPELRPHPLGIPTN
# METHOD_NOTES: Antagonist activity at human recombinant 5-HT6 receptor expressed human astrocytoma cells assessed as inhibition of 5-HT-induced cAMP accumulation after 10 mins preincubation by HTRF assay
METRIC_NAME: IC50 (nM)

Completed entries (count: 4):
COc1cccc(S(=O)(=O)c2ccc3c4c(oc3c2)CNCC4)c1 :: 21
O=S(=O)(c1cccc(F)c1)c1ccc2c3c(oc2c1)C1(CCOC1)NCC3 (racemic) :: 32
O=S(=O)(c1cccc(F)c1)c1ccc2c3c(oc2c1)C1(CCOCC1)NCC3 :: 6.8
CC1(C)NCCc2c1oc1cc(S(=O)(=O)c3cccc(F)c3)ccc21 :: 11.7

(a) O=S(=O)(c1cccc(F)c1)c1ccc2c3c(oc2c1)CNCC3
(b) O=S(=O)(c1ccccc1)c1ccc2c3c(oc2c1)CNCC3
(c) COc1cccc(S(=O)(=O)c2ccc3c4c(oc3c2)C(C)(C)NCC4)c1
(d) CC1(C)NCCc2c1oc1cc(S(=O)(=O)c3ccccc3)ccc21
Returns the items ordered by IC50, from maximum to minimum. Answer by writing out the labels in the requested order.
c, d, b, a
